Kindly state viability, T/C for each of the entries shown.
System: 521955-158-R2-J5-PDC complex spheroid growth, % test/control
ASSAY_SUMMARY: Anticancer human tumor 521955-158-R2-J5-PDC patient-derived pancreatic carcinoma cell line growth inhibition [Asc]
CONDITION_INFO: second compound 1 µM; first compound 3.16 µM; hits give low values
Write it as a number; the unit % goes unstated.

Qu. Please look up its viability, T/C: C=CC(=O)N1CCN(c2nc(=O)n(-c3c(C)ccnc3C(C)C)c3nc(-c4c(O)cccc4F)c(F)cc23)C(C)C1 (configuration not stated) + CNC(C)C(=O)NC1CN(S(=O)(=O)c2cccc(S(=O)(=O)N3CCC4CCC(C(=O)NC(c5ccccc5)c5ccccc5)N4C(=O)C(NC(=O)C(C)NC)C3)c2)CCC2CCC(C(=O)NC(c3ccccc3)c3ccccc3)N2C1=O
Ans. 113

Qu. Another molecule: C#Cc1c(F)ccc2cc(O)cc(-c3ncc4c(N5CC6CCC(C5)N6)nc(OCC56CCCN5CC(F)C6)nc4c3F)c12 (configuration not stated) + Cc1c(S(C)(=O)=O)c(-c2cc(F)cc(N3CCN(c4ccc(NS(=O)(=O)c5ccc(NC(CCN6CCC(C(=O)OCCCP(=O)(O)O)CC6)CSc6ccccc6)c(S(=O)(=O)C(F)(F)F)c5)cc4)CC3)c2)c(-c2ccc(Cl)cc2)n1C(C)C
Ans. 28.8

---

Tested on: 521955-158-R2-J5-PDC complex spheroid growth, % test/control
ASSAY_SUMMARY: Anticancer human tumor 521955-158-R2-J5-PDC cell line growth inhibition [Asc];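 note: spheroids exposed to agents for 7 days before readout; 100% = DMSO vehicle control viability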
CONDITION_INFO: second compound 0.949 µM; first compound 0.316 µM; hits give low values
METRIC: viability, T/C (%)
Write it as a number; the unit % goes unstated.

Qu. Please look up its viability, T/C: O=C(c1ccc(F)c(F)c1Nc1ccc(I)cc1F)N1CC(O)([C@@H]2CCCCN2)C1 + CCN1C(C(=O)NC23CCC(C(=O)O)(CC2)CC3)C(c2cccc(Cl)c2F)C2(C(=O)Nc3cc(Cl)ccc32)C12CCCCC2
Ans. 37.8

Qu. Another compound: COc1c(OCCCN2CCOCC2)ccc2c3n(c(=NC(=O)c4cnc(N)nc4)nc12)CCN3 + CCN1C(C(=O)NC23CCC(C(=O)O)(CC2)CC3)C(c2cccc(Cl)c2F)C2(C(=O)Nc3cc(Cl)ccc32)C12CCCCC2
Ans. 23.2

Qu. Another compound: CCN1CCN(Cc2ccc(Nc3ncc(F)c(-c4cc(F)c5nc(C)n(C(C)C)c5c4)n3)nc2)CC1 + CCN1C(C(=O)NC23CCC(C(=O)O)(CC2)CC3)C(c2cccc(Cl)c2F)C2(C(=O)Nc3cc(Cl)ccc32)C12CCCCC2
Ans. 92.3

---

Test system: 521955-158-R2-J5-PDC complex spheroid growth, % test/control
ASSAY_SUMMARY: Anticancer human tumor 521955-158-R2-J5-PDC cell line growth inhibition [Asc];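 note: spheroids exposed to agents for 7 days before readout; 100% = DMSO vehicle control viability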
CONDITION_INFO: second compound 0.01 µM; first compound 1 µM; hits give low values
METRIC: viability, T/C (%)
Write it as a number; the unit % goes unstated.

Qu. Please look up its viability, T/C: O=C(c1ccc(F)c(F)c1Nc1ccc(I)cc1F)N1CC(O)([C@@H]2CCCCN2)C1 + CNC(C)C(=O)NC1CN(S(=O)(=O)c2cccc(S(=O)(=O)N3CCC4CCC(C(=O)NC(c5ccccc5)c5ccccc5)N4C(=O)C(NC(=O)C(C)NC)C3)c2)CCC2CCC(C(=O)NC(c3ccccc3)c3ccccc3)N2C1=O
Ans. 20.2

Qu. Another compound: C#Cc1c(F)ccc2cc(O)cc(-c3ncc4c(N5CC6CCC(C5)N6)nc(OCC56CCCN5CC(F)C6)nc4c3F)c12 (centres undefined) + CNC(C)C(=O)NC1CN(S(=O)(=O)c2cccc(S(=O)(=O)N3CCC4CCC(C(=O)NC(c5ccccc5)c5ccccc5)N4C(=O)C(NC(=O)C(C)NC)C3)c2)CCC2CCC(C(=O)NC(c3ccccc3)c3ccccc3)N2C1=O
Ans. 16.3

Qu. Another compound: C=CC(=O)N1CCN(c2nc(=O)n(-c3c(C)ccnc3C(C)C)c3nc(-c4c(O)cccc4F)c(F)cc23)C(C)C1 (centres undefined) + CNC(C)C(=O)NC1CN(S(=O)(=O)c2cccc(S(=O)(=O)N3CCC4CCC(C(=O)NC(c5ccccc5)c5ccccc5)N4C(=O)C(NC(=O)C(C)NC)C3)c2)CCC2CCC(C(=O)NC(c3ccccc3)c3ccccc3)N2C1=O
Ans. 118

Qu. Another compound: O=C(c1cc(Cc2n[nH]c(=O)c3ccccc23)ccc1F)N1CCN(C(=O)C2CC2)CC1 + CNC(C)C(=O)NC1CN(S(=O)(=O)c2cccc(S(=O)(=O)N3CCC4CCC(C(=O)NC(c5ccccc5)c5ccccc5)N4C(=O)C(NC(=O)C(C)NC)C3)c2)CCC2CCC(C(=O)NC(c3ccccc3)c3ccccc3)N2C1=O
Ans. 66.1
